Kindly state inhibition at 3 µM for each of the entries shown.
biological target: human PF4 (Homo sapiens); construct: PF4 is a 70 amino acid, lysine-rich 7.8 kDa platelet-specific protein; made in house; host or cells: Escherichia coli BL21DE3 pLysS (pT7-7) and/or Drosophila S2 cells; test: Inhibition of PF4 tetramer formation (BS3 cross-linking, SDS-PAGE); format: biochemical; details: 3 μM inhibitor (column A); read-out: % inhibition of PF4 tetramer formation at single concentration of inhibitor
Only the number, expressed in %, is required.

inhibition at 3 µM reading for O=C1c2ccc(S(=O)(=O)c3ccc4c(c3)C(=O)C(C(=O)C3CCCCC3)C4=O)cc2C(=O)C1C(=O)C1CCCCC1 (stereo not drawn) [Example 288] : 15

Query CSCC(=O)C1C(=O)c2ccc(S(=O)(=O)c3ccc4c(c3)C(=O)C(C(=O)CSC)C4=O)cc2C1=O (stereo not drawn) [Example 282] yields inhibition at 3 µM of 45

Per the record, CC(C(=O)C1C(=O)c2ccc(S(=O)(=O)c3ccc4c(c3)C(=O)C(C(=O)C(C)c3ccc(F)cc3)C4=O)cc2C1=O)c1ccc(F)cc1 (stereo not drawn) [Example 243] has inhibition at 3 µM of 21

====

target: human PF4 (Homo sapiens, UniProt P02776); construct: PF4 is a 70 amino acid, lysine-rich 7.8 kDa platelet-specific protein; made in house; host or cells: Escherichia coli BL21DE3 pLysS (pT7-7) and/or Drosophila S2 cells; experiment: Inhibition of PF4 tetramer formation (BS3 cross-linking, SDS-PAGE); assay type: biochemical; conditions: 1 μM inhibitor; read-out: % inhibition of PF4 tetramer formation at single concentration of inhibitor
Result type: inhibition at 1 µM (%)
Give the quantity in %, number only.

Given item O=C1c2ccc(Oc3ccc4c(c3)C(=O)C(C(=O)C3CCCS3(=O)=O)C4=O)cc2C(=O)C1C(=O)C1CCCS1(=O)=O (centres unmarked) , the value recorded as its inhibition at 1 µM is 3

// inhibition at 1 µM lookup, molecule = O=C1c2ccc(S(=O)(=O)c3ccc4c(c3)C(=O)C(C(=S)NC3CC3)C4=O)cc2C(=O)C1C(=S)NC1CC1 (centres unmarked) , result: 22

Input CC(=O)OC[C@H]1O[C@@H](OC(C)=O)[C@H](NC(=O)C2C(=O)c3ccc(S(=O)(=O)c4ccc5c(c4)C(=O)C(C(=O)N[C@H]4[C@H](OC(C)=O)O[C@H](COC(C)=O)[C@@H](OC(C)=O)[C@@H]4OC(C)=O)C5=O)cc3C2=O)[C@@H](OC(C)=O)[C@@H]1OC(C)=O (some centres unmarked) . Output inhibition at 1 µM: 17

Query O=C(c1ccc2c(c1)C(=O)C(C(=O)[C@@H]1CCNC1)C2=O)c1ccc2c(c1)C(=O)C(C(=O)[C@H]1CCCN1)C2=O (some centres unmarked) yields inhibition at 1 µM of 2

For CC(=O)C1C(=O)c2ccc(N(C)S(=O)(=O)c3ccc4c(c3)C(=O)C(C(C)=O)C4=O)cc2C1=O (centres unmarked) the molecule record lists inhibition at 1 µM as 9

====

test: Pharmacokinetics after IV bolus in CD-1 mice; assay type: in vivo; conditions: mouse, plasma; CD-1 mice, 1 mg/kg IV bolus; read-out: Clearance
Result type: clearance (mL/min/kg)
Value expressed in mL/min/kg; do not type the unit.

What the record says about CC(=O)C1C(=O)c2ccc(C(=O)c3ccc4c(c3)C(=O)C(C(C)=O)C4=O)cc2C1=O (stereo not shown) : clearance is 1.79

====

Could you please report measured inhibition at 5 µM for the items listed next?
biological target: human PF4 (Homo sapiens, UniProt P02776); construct: PF4 is a 70 amino acid, lysine-rich 7.8 kDa platelet-specific protein; made in house; host or cells: Escherichia coli BL21DE3 pLysS (pT7-7) and/or Drosophila S2 cells; assay: Inhibition of PF4 tetramer formation (BS3 cross-linking, SDS-PAGE); format: biochemical; conditions: 5 μM inhibitor; read-out: % inhibition of PF4 tetramer formation at single concentration of inhibitor
Include the unit right after the number.

Hey, human PF4 (Homo sapiens, UniProt P02776) data for CO[C@H](C)[C@H](N)C(=O)C1C(=O)c2ccc(C(=O)c3ccc4c(c3)C(=O)C(C(=O)[C@@H](N)[C@@H](C)OC)C4=O)cc2C1=O (stereo partly drawn) : inhibition at 5 µM came out at 51%

I looked up CC(C)(C)OC(=O)N1CCC[C@H]1C(=O)C1C(=O)c2ccc(C(=O)c3ccc4c(c3)C(=O)C(C(=O)[C@@H]3CCCN3C(=O)OC(C)(C)C)C4=O)cc2C1=O (stereo partly drawn) and its inhibition at 5 µM for human PF4 (Homo sapiens, UniProt P02776) was 100%

I looked up O=C(c1ccc2c(c1)C(=O)C(C(=O)[C@@H]1CCN1)C2=O)c1ccc2c(c1)C(=O)C(C(=O)[C@@H]1CCN1)C2=O (stereo partly drawn) and its inhibition at 5 µM for human PF4 (Homo sapiens, UniProt P02776) was 13%

Fill in: human PF4 (Homo sapiens, UniProt P02776) inhibition at 5 µM for O=C(c1ccc2c(c1)C(=O)C(C(=O)C1CCOC1)C2=O)c1ccc2c(c1)C(=O)C(C(=O)C1CCOC1)C2=O (stereo not drawn) = 44%

Bench note, human PF4 (Homo sapiens, UniProt P02776): CC(C)(C)OC(=O)NCC(=O)C1C(=O)c2ccc(S(=O)(=O)c3ccc4c(c3)C(=O)C(C(=O)CNC(=O)OC(C)(C)C)C4=O)cc2C1=O (stereo not drawn) , inhibition at 5 µM reads 84%

Bench note, human PF4 (Homo sapiens, UniProt P02776): entry O=C1c2ccc(S(=O)(=O)c3ccc4c(c3)C(=O)C(C(=O)[C@@H]3C[C@H]3C(=O)O)C4=O)cc2C(=O)C1C(=O)[C@@H]1C[C@H]1C(=O)O (stereo in doubt) , its inhibition at 5 µM = 97%

inhibition at 5 µM on human PF4 (Homo sapiens, UniProt P02776) for CC(C)C(=O)NCC(=O)C1C(=O)c2ccc(C(=O)c3ccc4c(c3)C(=O)C(C(=O)CNC(=O)C(C)C)C4=O)cc2C1=O (stereo not drawn) is 88%

The reported inhibition at 5 µM value, human PF4 (Homo sapiens, UniProt P02776), for COCCOCCNC(=O)C1C(=O)c2ccc(C(=O)c3ccc4c(c3)C(=O)C(C(=O)NCCOCCOC)C4=O)cc2C1=O (stereo not drawn) reads 48%

The value of inhibition at 5 µM recorded for C[C@@H](C(=O)C1C(=O)c2ccc(C(=O)c3ccc4c(c3)C(=O)C(C(=O)[C@H](C)N(C)C(=O)OC(C)(C)C)C4=O)cc2C1=O)N(C)C(=O)OC(C)(C)C (stereo partly drawn) when tested on human PF4 (Homo sapiens, UniProt P02776) reads 95%

The measured inhibition at 5 µM that CC(C)(C)OC(=O)N1CSC[C@H]1C(=O)C1C(=O)c2ccc(-c3ccc4c(c3)C(=O)C(C(=O)[C@@H]3CSCN3C(=O)OC(C)(C)C)C4=O)cc2C1=O (stereo partly drawn) showed for human PF4 (Homo sapiens, UniProt P02776) is 62%

Fill in: human PF4 (Homo sapiens, UniProt P02776) inhibition at 5 µM for O=C(c1ccc2c(c1)C(=O)C(C(=O)NC1CCOCC1)C2=O)c1ccc2c(c1)C(=O)C(C(=O)NC1CCOCC1)C2=O (stereo not drawn) = 43%

Log: human PF4 (Homo sapiens, UniProt P02776), compound COCCOCCC(=O)C1C(=O)c2ccc(S(=O)(=O)c3ccc4c(c3)C(=O)C(C(=O)CCOCCOC)C4=O)cc2C1=O (stereo not drawn) , inhibition at 5 µM = 22%

====

Target: human PF4 (Homo sapiens, UniProt P02776)
Construct: PF4 is a 70 amino acid, lysine-rich 7.8 kDa platelet-specific protein; made in house; host or cells: Escherichia coli BL21DE3 pLysS (pT7-7) and/or Drosophila S2 cells
Sequence (P02776 32-101): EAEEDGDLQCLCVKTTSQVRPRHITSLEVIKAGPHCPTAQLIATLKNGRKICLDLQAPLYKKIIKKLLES
Assay: Inhibition of PF4 tetramer formation (BS3 cross-linking, SDS-PAGE)
Type: biochemical
Details: 5 μM inhibitor; read-out: % inhibition of PF4 tetramer formation at single concentration of inhibitor
Result type: inhibition at 5 µM (%)
Give the value in % but do not write % after it.

# molecule C[C@H]1C[C@@H](C(=O)C2C(=O)c3ccc(C(=O)c4ccc5c(c4)C(=O)C(C(=O)[C@@H]4C[C@H](C)CN4C(=O)OC(C)(C)C)C5=O)cc3C2=O)N(C(=O)OC(C)(C)C)C1 (stereo partly drawn) [Example 132] ; its inhibition at 5 µM = 79

For this molecule ( CO[C@@H]1O[C@H](C(=O)C2C(=O)c3ccc(S(=O)(=O)c4ccc5c(c4)C(=O)C(C(=O)[C@H]4O[C@@H](OC)[C@H]6OC(C)(C)O[C@@H]64)C5=O)cc3C2=O)[C@H]2OC(C)(C)O[C@H]12 (stereo partly drawn) [Example 220] ), measured inhibition at 5 µM is 90

// inhibition at 5 µM value for O=C1c2ccc(S(=O)(=O)c3ccc4c(c3)C(=O)C(C(=O)C3CCOC3)C4=O)cc2C(=O)C1C(=O)C1CCOC1 (stereo not drawn) [Example 147] : 55
